Data provenance: patent US20110135636A1

target: T1, recombinant human EGFR extracellular domain with 6xHis (human, UniProt P00533 25-645); assay: SPR competition, competitor 1308
T1 construct: In-house produced; also called 6xHis EGFR ECD; soluble human EGFR ECD; not shown: 6xHis tag
Recorded % inhibition by entry

{"columns": ["binder", "% inhibition [%]"],
 "data": [
  ["antibody 992 (antibody, human IgG1, kappa, V domains shown, Chimeric mouse/human IgG1 kappa; the VL entry includes the human kappa constant region) VH: EVQLQQPGSELVRPGASVKLSCKASGYTFTSYWMHWVKQRPGQGLEWIGNIYPGSRSTNYDEKFKSKATLTVDTSSSTAYMQLSSLTSEDSAVYYCTRNGDYYVSSGDAMDYWGQGTSVTVSS VL: DIQMTQTTSSLSASLGDRVTISCRTSQDIGNYLNWYQQKPDGTVKLLIYYTSRLHSGVPSRFSGSGSGTDFSLTINNVEQEDVATYFCQHYNTVPPTFGGGTKLEIKR", -9],
  ["antibody 1257 (antibody, human IgG1, kappa, V domains shown, Chimeric IgG1 kappa) VH: EVQLQQSGPELVKPGASVKIPCKTSGYTFTDYNMAWVKQSHGKSLEWIGDIIPNNGGAIYNQKFKGKATLTVDKSSSTASMELRSLTSEDTAVYFCARKNIYYRYDGAGALDYWGQGTSVTVSS VL: QIVLTQSPAIMSASPGEKVTMTCSASSSVSYIYWYQQKPGSSPRLLIYDASNLASGVPVRFSGSGSGTSYSLTISRMEAEDAATYYCQQWSSYPITFGSGTKLEIKR", 27],
  ["antibody 1344 (antibody, human IgG1, kappa, V domains shown, Chimeric IgG1 kappa) VH: QVQLKESGPGLVAPSQSLSITCTVSGFSLTIYGVHWVRQPPGKGLEWLGVIWAGGNTNYNSALMSRLSISKDNSKSQVFLKMNSLQTDDTAMYFCARGYGYNLDYWGQGTTLTVSS VL: DIQMTQTTSSLSASLGDRVTISCSASQGISNYLNWYQQKPDGTVKLLIYYTSSLHSGVPSRFSGSGSGTDYSLTISNLEPEDIATYYCQQYSKLPYTFGGGTKLEIKR", 73]
]}
